Values were extracted from ChEMBL document CHEMBL5385942.

The reader will find reported inhibition zone (IZ) values listed item by item below.
Tested on: Micrococcus luteus
Test: Antimicrobial activity against Micrococcus luteus ATCC 9341 assessed as zone of inhibition by […]
Assay type: functional
Measured Quantity: inhibition zone (IZ) (mm)

INSERT INTO measurements (molecule, observed_result) VALUES
  ('O=C(/C=C/c1ccc([N+](=O)[O-])cc1)c1ccc(Oc2nc(Oc3ccc(C(=O)/C=C/c4ccc([N+](=O)[O-])cc4)cc3)nc(Oc3ccc(C(=O)/C=C/c4ccc([N+](=O)[O-])cc4)cc3)n2)cc1', 7),
  ('Cc1ccc(C2CC(c3ccc(Oc4nc(Oc5ccc(C6=NN(C(N)=S)C(c7ccc(C)cc7)C6)cc5)nc(Oc5ccc(C6=NN(C(N)=S)C(c7ccc(C)cc7)C6)cc5)n4)cc3)=NN2C(N)=S)cc1 (centres undefined)', 20),
  ('O=C(/C=C/c1ccc(Cl)cc1)c1ccc(Oc2nc(Oc3ccc(C(=O)/C=C/c4ccc(Cl)cc4)cc3)nc(Oc3ccc(C(=O)/C=C/c4ccc(Cl)cc4)cc3)n2)cc1', 8),
  ('NC(=S)N1N=C(c2ccc(Oc3nc(Oc4ccc(C5=NN(C(N)=S)C(c6ccc(Cl)cc6)C5)cc4)nc(Oc4ccc(C5=NN(C(N)=S)C(c6ccc(Cl)cc6)C5)cc4)n3)cc2)CC1c1ccc(Cl)cc1 (centres undefined)', 18);

---

System: MDA-MB-468
Experiment: Antiproliferative activity against human MDA-MB-468 cells assessed as inhibition of cell growth
Assay type: functional, cell-based
pIC50: −log10 of the molar value.
Measured Quantity: pIC50

INSERT INTO assay_data (smiles, measured_quantity, observed_result) VALUES
  ('c1ccc(Sc2nc(Sc3ccccn3)nc(Sc3ccccn3)n2)nc1', 'pIC50', 3.67);

---

Tested on: Quadruplex DNA
Assay: Stabilization of human G4 quadruplex telomeric22 DNA assessed as change in temperature at 5 uM by FRET assay
Assay type: nucleic-acid assay
Measured Quantity: ΔTm

INSERT INTO assay_data (smiles, observed_result) VALUES
  ('c1ccc2c(c1)[nH]c1ccc(-c3cc(-c4ccc5[nH]c6ccccc6c5c4)cc(-c4ccc5[nH]c6ccccc6c5c4)c3)cc12', '4 °C'),
  ('c1ccc2c(c1)c1cc(-c3cc(-c4ccc5c(c4)c4ccccc4n5CCCN4CCCCC4)cc(-c4ccc5c(c4)c4ccccc4n5CCCN4CCCCC4)c3)ccc1n2CCCN1CCCCC1', '17 °C'),
  ('c1ccc2c(c1)c1cc(-c3cc(-c4ccc5c(c4)c4ccccc4n5CCCN4CCCC4)cc(-c4ccc5c(c4)c4ccccc4n5CCCN4CCCC4)c3)ccc1n2CCCN1CCCC1', '14.3 °C');

---

Tested on: Jurkat
Test: Antiproliferative activity against human Jurkat cells assessed as inhibition of cell growth incubated for 24 hrs by SRB assay
Type: functional, cell-based
pIC50: −log10 of the molar value.
Measured Quantity: pIC50

INSERT INTO measurements (smiles, observed_result) VALUES
  ('ClCCCN1CCN(c2nc(N3CCN(CCCl)CC3)nc(N3CCN(CCCl)CC3)n2)CC1', 6.21);

---

System: Bacillus subtilis
Test: Antimicrobial activity against Bacillus subtilis MTCC 441 assessed as zone of inhibition by […]
Assay type: functional
Measured Quantity: inhibition zone (IZ) (mm)

INSERT INTO assay_data (compound, measured_quantity, observed_result) VALUES
  ('O=C(/C=C/c1ccc([N+](=O)[O-])cc1)c1ccc(Oc2nc(Oc3ccc(C(=O)/C=C/c4ccc([N+](=O)[O-])cc4)cc3)nc(Oc3ccc(C(=O)/C=C/c4ccc([N+](=O)[O-])cc4)cc3)n2)cc1', 'inhibition zone (IZ)', 7),
  ('NC(=S)N1N=C(c2ccc(Oc3nc(Oc4ccc(C5=NN(C(N)=S)C(c6cccc([N+](=O)[O-])c6)C5)cc4)nc(Oc4ccc(C5=NN(C(N)=S)C(c6cccc([N+](=O)[O-])c6)C5)cc4)n3)cc2)CC1c1cccc([N+](=O)[O-])c1 (stereo not given)', 'inhibition zone (IZ)', 13),
  ('O=C(/C=C/c1cccc([N+](=O)[O-])c1)c1ccc(Oc2nc(Oc3ccc(C(=O)/C=C/c4cccc([N+](=O)[O-])c4)cc3)nc(Oc3ccc(C(=O)/C=C/c4cccc([N+](=O)[O-])c4)cc3)n2)cc1', 'inhibition zone (IZ)', 7),
  ('NC(=S)N1N=C(c2ccc(Oc3nc(Oc4ccc(C5=NN(C(N)=S)C(c6ccccc6)C5)cc4)nc(Oc4ccc(C5=NN(C(N)=S)C(c6ccccc6)C5)cc4)n3)cc2)CC1c1ccccc1 (stereo not given)', 'inhibition zone (IZ)', 11),
  ('O=C(/C=C/c1ccc(Cl)cc1)c1ccc(Oc2nc(Oc3ccc(C(=O)/C=C/c4ccc(Cl)cc4)cc3)nc(Oc3ccc(C(=O)/C=C/c4ccc(Cl)cc4)cc3)n2)cc1', 'inhibition zone (IZ)', 7),
  ('NC(=S)N1N=C(c2ccc(Oc3nc(Oc4ccc(C5=NN(C(N)=S)C(c6ccc(Cl)cc6)C5)cc4)nc(Oc4ccc(C5=NN(C(N)=S)C(c6ccc(Cl)cc6)C5)cc4)n3)cc2)CC1c1ccc(Cl)cc1 (stereo not given)', 'inhibition zone (IZ)', 10),
  ('NC(=S)N1N=C(c2ccc(Oc3nc(Oc4ccc(C5=NN(C(N)=S)C(c6ccc([N+](=O)[O-])cc6)C5)cc4)nc(Oc4ccc(C5=NN(C(N)=S)C(c6ccc([N+](=O)[O-])cc6)C5)cc4)n3)cc2)CC1c1ccc([N+](=O)[O-])cc1 (stereo not given)', 'inhibition zone (IZ)', 10),
  ('Cc1ccc(C2CC(c3ccc(Oc4nc(Oc5ccc(C6=NN(C(N)=S)C(c7ccc(C)cc7)C6)cc5)nc(Oc5ccc(C6=NN(C(N)=S)C(c7ccc(C)cc7)C6)cc5)n4)cc3)=NN2C(N)=S)cc1 (stereo not given)', 'inhibition zone (IZ)', 9),
  ('Cc1ccc(/C=C/C(=O)c2ccc(Oc3nc(Oc4ccc(C(=O)/C=C/c5ccc(C)cc5)cc4)nc(Oc4ccc(C(=O)/C=C/c5ccc(C)cc5)cc4)n3)cc2)cc1', 'inhibition zone (IZ)', 10),
  ('O=C(/C=C/c1ccccc1)c1ccc(Oc2nc(Oc3ccc(C(=O)/C=C/c4ccccc4)cc3)nc(Oc3ccc(C(=O)/C=C/c4ccccc4)cc3)n2)cc1', 'inhibition zone (IZ)', 7);
